Test system: PXR homodimer (NR concentration 270 nM)
EXPERIMENT_SUMMARY: PBM binding z-score (relative to random genomic background probes); higher = stronger binding; sequences stand for … in GC…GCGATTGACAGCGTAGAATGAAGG
Criterion: PBM binding z-score meeting or surpassing 0.002. Met: Fulfilled. Not met: Not fulfilled.

[[record]]
construct_sequence = "GCTTCTAGGTCAGGTTGGTCAGCTAACGGGTACG"
discrete_label = "Fulfilled"

[[record]]
construct_sequence = "CGAACTAGGTCAGAACAGGACACTGAAGGATGAT"
discrete_label = "Not fulfilled"

[[record]]
construct_sequence = "TCTATTAGGTGATTAGGGCAACCGAAACAGCGGA"
discrete_label = "Fulfilled"

[[record]]
construct_sequence = "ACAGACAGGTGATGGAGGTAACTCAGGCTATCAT"
discrete_label = "Not fulfilled"

[[record]]
construct_sequence = "TAGCCTAGGTCATGGGCCAGGATACCACGCGAAC"
discrete_label = "Not fulfilled"

[[record]]
construct_sequence = "ATCGAAAGGTCGAGGTGAGTAAAGAGAAAGGGAA"
discrete_label = "Fulfilled"

[[record]]
construct_sequence = "CGTACTGGGCCATCAGGTCATTGATATCAACGTT"
discrete_label = "Fulfilled"

[[record]]
construct_sequence = "GCTAGTTGGTCAGTAAAAGGTCACCCACCGGTCG"
discrete_label = "Fulfilled"

[[record]]
construct_sequence = "CCTAGTTGGTCAGGAGGTCACACACCGGATATGA"
discrete_label = "Fulfilled"

[[record]]
construct_sequence = "CGTCCAAGGTCAGAGAGGCCAGTGAATGCCGAGT"
discrete_label = "Fulfilled"

[[record]]
construct_sequence = "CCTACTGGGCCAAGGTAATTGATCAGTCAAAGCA"
discrete_label = "Not fulfilled"

[[record]]
construct_sequence = "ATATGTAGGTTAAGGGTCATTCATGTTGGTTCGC"
discrete_label = "Fulfilled"

[[record]]
construct_sequence = "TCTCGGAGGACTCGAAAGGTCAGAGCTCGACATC"
discrete_label = "Fulfilled"

[[record]]
construct_sequence = "TCTTGTAGATCATAGGTTAAGAAAGCCGAAGCCT"
discrete_label = "Not fulfilled"

[[record]]
construct_sequence = "GCCGCTAGGTCAACTGATGGTCAGCTAAAGCTCG"
discrete_label = "Not fulfilled"

[[record]]
construct_sequence = "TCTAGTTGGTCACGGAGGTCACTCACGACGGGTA"
discrete_label = "Fulfilled"

[[record]]
construct_sequence = "AGAATAAGGTTAAGATCAGGGAAACAGAATACAT"
discrete_label = "Fulfilled"

[[record]]
construct_sequence = "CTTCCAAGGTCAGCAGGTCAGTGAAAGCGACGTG"
discrete_label = "Fulfilled"

[[record]]
construct_sequence = "GCTTACGGTTCAAAGGTTATAGCATGAATAGAAT"
discrete_label = "Fulfilled"

[[record]]
construct_sequence = "AGAATGAGGTTATTAAGATTAGGGAATTGCGGTC"
discrete_label = "Fulfilled"

[[record]]
construct_sequence = "TGTCAAAGTTCAATGGTAACGTAAGTATCCACAC"
discrete_label = "Fulfilled"

[[record]]
construct_sequence = "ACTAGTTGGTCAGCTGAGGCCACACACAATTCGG"
discrete_label = "Not fulfilled"

[[record]]
construct_sequence = "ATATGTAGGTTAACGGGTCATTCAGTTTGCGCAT"
discrete_label = "Fulfilled"

[[record]]
construct_sequence = "GTAGACAGGTGAAACGCAGGTAACTCAGGGTGGC"
discrete_label = "Not fulfilled"

[[record]]
construct_sequence = "GCTAGCAGGCCATTTAGGTCACTCAATGACGGGC"
discrete_label = "Fulfilled"

[[record]]
construct_sequence = "CGTCCAAGGTCATAGGAGATCAGTGAAGACAGAT"
discrete_label = "Fulfilled"

